compounds and their reported IC50
target: ACAT (Acyl-CoA: cholesterol acyltransferase) enzyme of rabbit liver microsome
assay: Inhibitory effect on ACAT enzyme (No.1), rabbit liver microsome
measurement-conditions: Table 9
Output spec: scalar in nM, unitless text.

[[record]]
entry_smiles = "CN(C)c1ccc(NC(=O)N(C[C@H]2CC[C@H](CN(C(=O)Nc3ccc(N(C)C)cc3)C3CCCCCC3)CC2)C2CCCCCC2)cc1"
target = "ACAT (Acyl-CoA: cholesterol acyltransferase) enzyme of rabbit liver microsome"
reported_measurement = 38

[[record]]
entry_smiles = "CN(C)c1ccc(NC(=O)N(C[C@@H]2CCC[C@H](CN(C(=O)Nc3ccc(N(C)C)cc3)C3CCCCCC3)C2)C2CCCCCC2)cc1"
target = "ACAT (Acyl-CoA: cholesterol acyltransferase) enzyme of rabbit liver microsome"
reported_measurement = 46


Param item = CN(C)c1ccc(NC(=O)N(C[C@H]2CC[C@@H](CN(C(=O)Nc3ccc(N(C)C)cc3)C3CCCCCC3)CC2)C2CCCCCC2)cc1 ; retrieve measured IC50.
50
